From: patent US6737383B1

test system: sugar beet; experiment: Test B pre/postemergence sugar beet; assay type: in vivo, Beta vulgaris; conditions: Preemergence, Rate 500 g/ha; scale of 0 to 10 where 0 is no effect and 10 is complete control
ASSAY_METRIC: Plant response rating, Sugarbeets
Write the value as a bare number.

C=C(Cn1c(=O)on(C(=O)N(c2ccccc2)C(C)C)c1=O)c1ccc(F)cc1 [Compound 606] = 0

Request: Which Plant response rating, Sugarbeets is reported for this molecule? CC(C)N(C(=O)n1oc(=O)n(C2CCCC2)c1=O)c1ccccc1 [Compound 283]
Result: 5

Request: Item: CC(C)N(C(=O)n1oc(=O)n(CC(=O)C(C)(C)C)c1=O)c1ccc(F)cc1 [Compound 216]
Result: 0

Request: Item: CCOC(=O)C=CCn1c(=O)on(C(=O)N(c2ccc(F)cc2)C(C)C)c1=O [Compound 214]
Result: 0

Request: Item: CC(C)N(C(=O)n1oc(=O)n(-c2ccsc2)c1=O)c1ccc(F)cc1 [Compound 272]
Result: 0

Request: Item: C=CCn1c(=O)on(C(=O)N(c2ccc(F)cc2)C2CCCCCC2)c1=O [Compound 249]
Result: 0

Request: Item: COC(=O)C(C)n1c(=O)on(C(=O)N(c2ccc(Cl)cc2)C(C)C)c1=O (centres unmarked) [Compound 623]
Result: 2

Request: Item: CC(C)N(C(=O)n1oc(=O)n(-c2cccnc2)c1=O)c1ccccc1 [Compound 235]
Result: 0

###

tested on: rape; test: Test B pre/postemergence rape; type: in vivo, Brassica napus; details: Preemergence, Rate 250 g/ha; scale of 0 to 10 where 0 is no effect and 10 is complete control
# maps each entry to its Plant response rating, Rape
Write the value as a bare number.

COc1ccc(-n2c(=O)on(C(=O)N(c3ccc(F)cc3F)C(C)C)c2=O)c(OC)c1 = 0
CCN(CC)C(=O)n1oc(=O)n(-c2cc(Cl)cc(Cl)c2)c1=O = 0
COc1ccccc1-n1c(=O)on(C(=O)N(c2ccc(F)cc2)C(C)C)c1=O = 0
CC(C)N(C(=O)n1oc(=O)n(-c2cccc3c2CCCC3)c1=O)c1ccc(F)cc1 = 0

Kindly consider the entry below.
Request: Which Plant response rating, Rape is reported for this molecule? Cc1ccc(N(C(=O)n2oc(=O)n(-c3ccccc3C)c2=O)C(C)C)cc1
Result: 0

###

test system: pigweed; assay: Test B pre/postemergence pigweed; format: in vivo, Amaranthus retroflexus; settings: Postemergence, Rate 62 g/ha; scale 0 to 10, 0 is no effect, 10 is complete control
ASSAY_METRIC: Redroot pigweed plant response rating
Write the value as a bare number.

The examples below pair each entry with its known result.
COc1ccccc1-n1c(=O)on(C(=O)N(c2ccc(F)cc2)C(C)C)c1=O = 0
Cc1ccccc1-n1c(=O)on(C(=O)N(c2ccc(F)c(F)c2)C(C)C)c1=O = 0
CCN(Cc1ccccc1)C(=O)n1oc(=O)n(-c2c(C)cccc2C)c1=O = 0

Kindly consider the entry below.
Request: Which Redroot pigweed plant response rating is reported for this compound? Cc1cc(C)c(-n2c(=O)on(C(=O)N(c3ccc(Cl)cc3)C(C)C)c2=O)c(C)c1
Result: 1

###

tested on: crabgrass; assay: Test B pre/postemergence crabgrass; format: in vivo, Digitaria sanguinalis; conditions: Preemergence, Rate 250 g/ha; scale of 0 to 10 where 0 is no effect and 10 is complete control
ASSAY_METRIC: Crabgrass plant response rating
Write the value as a bare number.

CC(C)N(C(=O)n1oc(=O)n(Cc2nnsc2Cl)c1=O)c1ccccc1 [Compound 321] = 3
CCN(C(=O)n1oc(=O)n(Cc2ccco2)c1=O)C1CCCCC1 [Compound 312] = 0
CCOC(=O)C(C)N(C(=O)n1oc(=O)n(CC)c1=O)c1ccc(F)cc1 (centres unmarked) [Compound 248] = 0
CCN(CC)C(=O)n1oc(=O)n(-c2ccccc2C)c1=O [Compound 364] = 2
CCc1ccc(N(C(=O)n2oc(=O)n(-c3ccccc3C)c2=O)C(C)C)cc1 [Compound 230] = 7

Request: Which Crabgrass plant response rating is reported for this compound? CON=C(Cn1c(=O)on(C(=O)N(c2ccc(F)cc2)C(C)C)c1=O)C(F)(F)F [Compound 227]
Result: 10

Request: Item: Cc1ccccc1N(C(=O)n1oc(=O)n(-c2ccccc2C)c1=O)C(C)C [Compound 236]
Result: 5

Request: Item: CC(C)N(C(=O)n1oc(=O)n([C@H](C)c2ccccc2)c1=O)c1ccc(F)cc1F [Compound 238]
Result: 10
